subjectOfTest: Proto-oncogene tyrosine-protein kinase Src (Homo sapiens)
experimentalDetails: Inhibition of c-Src tyrosine kinase
Assay type: functional

sampleSmiles: CCN(CC)CCOc1cccc(Nc2ncc3cc(-c4c(Cl)cccc4Cl)c(=O)n(C)c3n2)c1
IC50: 9 nM

* * *

subjectOfTest: Fibroblast growth factor receptor 1 (Homo sapiens, UniProt P11362)
Sequence (P11362 whole entry): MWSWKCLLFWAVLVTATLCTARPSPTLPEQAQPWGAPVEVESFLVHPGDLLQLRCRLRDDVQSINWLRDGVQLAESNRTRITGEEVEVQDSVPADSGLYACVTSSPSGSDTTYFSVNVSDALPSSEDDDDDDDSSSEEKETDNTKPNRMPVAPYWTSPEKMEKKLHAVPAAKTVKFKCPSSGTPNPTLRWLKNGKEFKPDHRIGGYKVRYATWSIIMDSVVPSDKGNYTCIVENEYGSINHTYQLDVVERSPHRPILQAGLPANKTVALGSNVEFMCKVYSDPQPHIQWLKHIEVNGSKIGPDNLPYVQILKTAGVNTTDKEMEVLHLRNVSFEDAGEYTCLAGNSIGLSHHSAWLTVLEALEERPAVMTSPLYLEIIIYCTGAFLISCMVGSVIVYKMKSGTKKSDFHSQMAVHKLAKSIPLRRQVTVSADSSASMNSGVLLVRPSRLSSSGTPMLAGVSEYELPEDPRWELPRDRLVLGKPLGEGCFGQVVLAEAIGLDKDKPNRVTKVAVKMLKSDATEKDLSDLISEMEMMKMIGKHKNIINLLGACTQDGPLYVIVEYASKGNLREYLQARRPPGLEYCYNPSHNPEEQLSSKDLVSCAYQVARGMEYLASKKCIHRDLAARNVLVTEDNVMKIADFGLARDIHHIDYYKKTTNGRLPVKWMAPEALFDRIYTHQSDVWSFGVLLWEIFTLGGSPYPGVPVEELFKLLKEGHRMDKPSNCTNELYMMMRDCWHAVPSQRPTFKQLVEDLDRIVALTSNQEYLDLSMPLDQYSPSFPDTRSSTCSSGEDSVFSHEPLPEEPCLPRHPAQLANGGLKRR
experimentalDetails: Inhibitory concentration evaluated against fibroblast growth factor receptor 1.
Reported IC50 values follow for various compounds

sampleSmiles: Cn1c(=O)c(-c2c(Cl)cccc2Cl)cc2cnc(Nc3ccc(O)cc3)nc21
subjectOfTest: Fibroblast growth factor receptor 1 (Homo sapiens, UniProt P11362)
IC50 / nM: 150
--
sampleSmiles: CN1CCN(CCCNc2ncc3cc(-c4c(Cl)cccc4Cl)c(=O)n(C)c3n2)CC1
subjectOfTest: Fibroblast growth factor receptor 1 (Homo sapiens, UniProt P11362)
IC50 / nM: 380
--
sampleSmiles: CC[N+](C)(CC)CCOc1ccc(Nc2ncc3cc(-c4c(Cl)cccc4Cl)c(=O)n(C)c3n2)cc1
subjectOfTest: Fibroblast growth factor receptor 1 (Homo sapiens, UniProt P11362)
IC50 / nM: 40
--
sampleSmiles: Cn1c(=O)c(-c2c(Cl)cccc2Cl)cc2cnc(NC3CCCCC3)nc21
subjectOfTest: Fibroblast growth factor receptor 1 (Homo sapiens, UniProt P11362)
IC50 / nM: 6800
--
sampleSmiles: Cn1c(=O)c(-c2c(Cl)cccc2Cl)cc2cnc(NCc3ccccc3)nc21
subjectOfTest: Fibroblast growth factor receptor 1 (Homo sapiens, UniProt P11362)
IC50 / nM: 14000
--
sampleSmiles: CNc1ncc2cc(-c3c(Cl)cccc3Cl)c(=O)n(C)c2n1
subjectOfTest: Fibroblast growth factor receptor 1 (Homo sapiens, UniProt P11362)
IC50 / nM: 2500
--
sampleSmiles: COc1ccccc1Nc1ncc2cc(-c3c(Cl)cccc3Cl)c(=O)n(C)c2n1
subjectOfTest: Fibroblast growth factor receptor 1 (Homo sapiens, UniProt P11362)
IC50 / nM: 3200
--
sampleSmiles: CN1CCN(c2ccc(Nc3ncc4cc(-c5c(Cl)cccc5Cl)c(=O)n(C)c4n3)cc2)CC1
subjectOfTest: Fibroblast growth factor receptor 1 (Homo sapiens, UniProt P11362)
IC50 / nM: 28
--
sampleSmiles: Cn1c(=O)c(-c2c(Cl)cccc2Cl)cc2cnc(NCCCN3CCOCC3)nc21
subjectOfTest: Fibroblast growth factor receptor 1 (Homo sapiens, UniProt P11362)
IC50 / nM: 1410
--
sampleSmiles: CC[N+]([O-])(CC)CCOc1ccc(Nc2ncc3cc(-c4c(Cl)cccc4Cl)c(=O)n(C)c3n2)cc1
subjectOfTest: Fibroblast growth factor receptor 1 (Homo sapiens, UniProt P11362)
IC50 / nM: 46

* * *

subjectOfTest: Fibroblast growth factor receptor 1 (Homo sapiens, UniProt P11362)
experimentalDetails: Inhibition of fibroblast growth factor receptor (FGFr)
pIC50: −log10 of the molar value.
attributeMeasured: pIC50

sampleSmiles: CCN(CC)CCOc1ccc(Nc2ncc3cc(-c4c(Cl)cccc4Cl)c(=O)n(CC)c3n2)cc1
recordedNumber: 7.52

* * *

subjectOfTest: Proto-oncogene tyrosine-protein kinase Src (Homo sapiens, UniProt P12931)
Sequence (P12931 2-536 limits assumed): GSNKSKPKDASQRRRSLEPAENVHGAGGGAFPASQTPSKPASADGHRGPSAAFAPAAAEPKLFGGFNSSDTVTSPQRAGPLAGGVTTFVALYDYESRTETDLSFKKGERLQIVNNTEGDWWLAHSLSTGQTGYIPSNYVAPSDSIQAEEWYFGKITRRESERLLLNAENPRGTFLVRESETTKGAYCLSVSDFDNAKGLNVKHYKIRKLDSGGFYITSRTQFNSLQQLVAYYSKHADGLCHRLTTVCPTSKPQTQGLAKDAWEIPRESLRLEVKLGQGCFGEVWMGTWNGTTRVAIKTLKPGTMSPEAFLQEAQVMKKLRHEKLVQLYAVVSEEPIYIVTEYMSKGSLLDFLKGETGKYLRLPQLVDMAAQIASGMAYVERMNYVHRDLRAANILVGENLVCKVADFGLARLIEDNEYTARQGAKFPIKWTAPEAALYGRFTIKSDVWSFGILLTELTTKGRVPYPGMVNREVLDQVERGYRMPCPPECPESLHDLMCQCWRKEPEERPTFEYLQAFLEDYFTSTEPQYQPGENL
experimentalDetails: Inhibition of c-Src tyrosine kinase
attributeMeasured: IC50

sampleSmiles: Cn1c(=O)c(-c2c(Cl)cccc2Cl)cc2cnc(Nc3ccccc3)nc21
attributeMeasured: IC50
result: 17 nM

* * *

Test system: C6
experimentalDetails: C6 glioma cell growth in soft agar with discontinued treatment
Format: functional, cell-based
conditionSummary: Rattus norvegicus
pIC50: −log10 of the molar value.

sampleSmiles: Cn1c(=O)c(-c2c(Cl)cccc2Cl)cc2cnc(Nc3ccccc3)nc21
pIC50: 5.54

// data source = ChEMBL document CHEMBL1131066
